test: PK of compound of Formula (Ia) after single intramuscular dose of solution formulations in Wistar Han rats; format: in vivo; conditions: Wistar Han, rat, plasma, intramuscular, 100 mg/kg, Solution H (~400 mg/mL); IM 100 mg/kg; Wistar Han rats; mean, n = 4; 168 h; read-out: Plasma concentration, Mean
endpoint_label: concentration at 168 h (nM)
Give the value in nM but do not write nM after it.

Consider the molecule CC(C)(C#Cc1ccc(-c2ccc(Cl)c3c(NS(C)(=O)=O)nn(CC(F)(F)F)c23)c([C@H](Cc2cc(F)cc(F)c2)NC(=O)Cn2nc(C(F)(F)F)c3c2C(F)(F)[C@@H]2C[C@H]32)n1)S(C)(=O)=O and give its measured concentration at 168 h. 588
